Listed below: % Remaining values for each entry.
Procedure Summary: Compound mouse plasma stability
Run Parameters: 15 minutes

Recorded % Remaining, per entry:
| Compound | Result |
| --- | --- |
| CC(Cc1ccc2c(c1)OCO2)NC(=O)CN (stereo not shown) [Compound 5] | 103.33% |
| CCOC(=O)N(C)C(C)Cc1ccc2c(c1)OCO2 (stereo not shown) [Compound 1] | 108.51% |
| CCOC(=O)NC(C)Cc1ccc2c(c1)OCO2 (stereo not shown) [Compound 2] | 101.77% |

Next compound, % Remaining to be filled in.
Give the measured % Remaining for C[C@H](Cc1ccc2c(c1)OCO2)N(C)C(=O)OC(C)(C)C [Compound 7]
101%

* * *

Listed below: % Remaining values for each entry.
Procedure Summary: Compound chemical stability PBS (pH 6.5)
Run Parameters: PBS pH 6.5, 240 minutes
Entry format: amount then unit.

Recorded % Remaining, per entry:
| Compound | Result |
| --- | --- |
| C[C@H](Cc1ccc2c(c1)OCO2)N(C)C(=O)OC(C)(C)C [Compound 7] | 102.75% |
| Cc1oc(=O)oc1CN[C@H](C)Cc1ccc2c(c1)OCO2 [Compound 8] | 72% |
| CCOC(=O)N(C)C(C)Cc1ccc2c(c1)OCO2 (stereo not shown) [Compound 1] | 90.28% |

Next compound, % Remaining to be filled in.
Give the measured % Remaining for CC(Cc1ccc2c(c1)OCO2)NC(=O)CN (stereo not shown) [Compound 5]
105.87%

* * *

Procedure Summary: Compound solubility in FaSSIF
Listed below: solubility values for each entry.

Recorded solubility, per entry:
| Molecule | solubility |
| --- | --- |
| CC(OC(=O)N(C)C(C)Cc1ccc2c(c1)OCO2)OC(=O)C(C)(C)C (centres unmarked) [Compound 3] | 101 µM |
| C[C@H](Cc1ccc2c(c1)OCO2)NC(=O)OC(C)(C)C [Compound 6] | 175 µM |
| CCOC(=O)NC(C)Cc1ccc2c(c1)OCO2 (centres unmarked) [Compound 2] | 313 µM |
| CC(Cc1ccc2c(c1)OCO2)NC(=O)CN (centres unmarked) [Compound 5] | 304 µM |

Next molecule, solubility to be filled in.
Give the measured solubility for Cc1oc(=O)oc1CN(C)[C@H](C)Cc1ccc2c(c1)OCO2 [Compound 9]
223 µM

* * *

Procedure Summary: Compound mouse plasma stability
Run Parameters: 15 minutes
Listed below: % Remaining values for each entry.
Entry format: amount then unit.

Recorded % Remaining, per entry:
| Molecule | % Remaining |
| --- | --- |
| Cc1oc(=O)oc1CN(C)[C@H](C)Cc1ccc2c(c1)OCO2 [Compound 9] | 70% |
| CC(Cc1ccc2c(c1)OCO2)N(C)C(=O)CN (centres unmarked) [Compound 4] | 102.99% |
| CC(OC(=O)N(C)C(C)Cc1ccc2c(c1)OCO2)OC(=O)C(C)(C)C (centres unmarked) [Compound 3] | 0.0% |
| Cc1oc(=O)oc1CN[C@H](C)Cc1ccc2c(c1)OCO2 [Compound 8] | 72% |

Next molecule, % Remaining to be filled in.
Give the measured % Remaining for C[C@H](Cc1ccc2c(c1)OCO2)NC(=O)OC(C)(C)C [Compound 6]
102%

* * *

Procedure Summary: Compound chemical stability SGF with pepsin
Run Parameters: 0 minutes
Reported Endpoint: % Remaining (%)
Give the value, in units of %, as a plain number.

Recorded % Remaining, per entry:
| Compound | % Remaining (%) |
| --- | --- |
| CCOC(=O)N(C)C(C)Cc1ccc2c(c1)OCO2 (stereo not drawn) | 100.00 |
| CC(OC(=O)N(C)C(C)Cc1ccc2c(c1)OCO2)OC(=O)C(C)(C)C (stereo not drawn) | 100.00 |

Give the measured % Remaining for CC(Cc1ccc2c(c1)OCO2)N(C)C(=O)CN (stereo not drawn)
100.00

Give the measured % Remaining for C[C@H](Cc1ccc2c(c1)OCO2)N(C)C(=O)OC(C)(C)C
100.00

Give the measured % Remaining for Cc1oc(=O)oc1CN[C@H](C)Cc1ccc2c(c1)OCO2
100

Give the measured % Remaining for C[C@H](Cc1ccc2c(c1)OCO2)NC(=O)OC(C)(C)C
100.00

Give the measured % Remaining for CC(Cc1ccc2c(c1)OCO2)NC(=O)CN (stereo not drawn)
100.00

Give the measured % Remaining for CCOC(=O)NC(C)Cc1ccc2c(c1)OCO2 (stereo not drawn)
100.00

Give the measured % Remaining for Cc1oc(=O)oc1CN(C)[C@H](C)Cc1ccc2c(c1)OCO2
100

* * *

Listed below: solubility values for each entry.
Procedure Summary: Compound solubility in FaSSIF
Give the value, in units of µM, as a plain number.

| Molecule | Reported Endpoint | Numeric Readout |
| --- | --- | --- |
| CCOC(=O)N(C)C(C)Cc1ccc2c(c1)OCO2 (stereo not shown) | solubility | 309 |
| Cc1oc(=O)oc1CN[C@H](C)Cc1ccc2c(c1)OCO2 | solubility | 283 |
| C[C@H](Cc1ccc2c(c1)OCO2)N(C)C(=O)OC(C)(C)C | solubility | 257 |

Give the measured solubility for CC(Cc1ccc2c(c1)OCO2)N(C)C(=O)CN (stereo not shown)
291

* * *

Procedure Summary: Compound mouse plasma stability
Run Parameters: 30 minutes
Listed below: % Remaining values for each entry.
Give the value, in units of %, as a plain number.

| Compound | Reported Endpoint | Unit Abbrev | Numeric Readout |
| --- | --- | --- | --- |
| Cc1oc(=O)oc1CN(C)[C@H](C)Cc1ccc2c(c1)OCO2 | % Remaining | % | 22 |
| C[C@H](Cc1ccc2c(c1)OCO2)NC(=O)OC(C)(C)C | % Remaining | % | 106 |
| CC(Cc1ccc2c(c1)OCO2)NC(=O)CN (centres unmarked) | % Remaining | % | 87.64 |

Give the measured % Remaining for CC(Cc1ccc2c(c1)OCO2)N(C)C(=O)CN (centres unmarked)
83.50

Give the measured % Remaining for C[C@H](Cc1ccc2c(c1)OCO2)N(C)C(=O)OC(C)(C)C
92

* * *

Procedure Summary: Compound chemical stability PBS (pH 6.5)
Run Parameters: PBS pH 6.5, 120 minutes
Listed below: % Remaining values for each entry.
Entry format: amount then unit.

Recorded % Remaining, per entry:
| Compound | % Remaining |
| --- | --- |
| C[C@H](Cc1ccc2c(c1)OCO2)N(C)C(=O)OC(C)(C)C [Compound 7] | 105.72% |
| CCOC(=O)NC(C)Cc1ccc2c(c1)OCO2 (stereo not drawn) [Compound 2] | 91.21% |
| CC(OC(=O)N(C)C(C)Cc1ccc2c(c1)OCO2)OC(=O)C(C)(C)C (stereo not drawn) [Compound 3] | 105.56% |
| C[C@H](Cc1ccc2c(c1)OCO2)NC(=O)OC(C)(C)C [Compound 6] | 103.65% |
| CC(Cc1ccc2c(c1)OCO2)NC(=O)CN (stereo not drawn) [Compound 5] | 98.67% |
| CC(Cc1ccc2c(c1)OCO2)N(C)C(=O)CN (stereo not drawn) [Compound 4] | 92.04% |

Give the measured % Remaining for Cc1oc(=O)oc1CN(C)[C@H](C)Cc1ccc2c(c1)OCO2 [Compound 9]
55%

Give the measured % Remaining for Cc1oc(=O)oc1CN[C@H](C)Cc1ccc2c(c1)OCO2 [Compound 8]
75%

Give the measured % Remaining for CCOC(=O)N(C)C(C)Cc1ccc2c(c1)OCO2 (stereo not drawn) [Compound 1]
89.59%

* * *

Procedure Summary: Compound mouse plasma stability
Run Parameters: 60 minutes
Listed below: % Remaining values for each entry.
Give the value, in units of %, as a plain number.

Recorded % Remaining, per entry:
| Molecule | Unit Abbrev | % Remaining |
| --- | --- | --- |
| CC(OC(=O)N(C)C(C)Cc1ccc2c(c1)OCO2)OC(=O)C(C)(C)C (stereo not drawn) [Compound 3] | % | 0.0 |
| CCOC(=O)NC(C)Cc1ccc2c(c1)OCO2 (stereo not drawn) [Compound 2] | % | 89.02 |

Next molecule, % Remaining to be filled in.
Give the measured % Remaining for Cc1oc(=O)oc1CN[C@H](C)Cc1ccc2c(c1)OCO2 [Compound 8]
25

* * *

Procedure Summary: Compound chemical stability SGF with pepsin
Run Parameters: 30 minutes
Reported Endpoint: % Remaining (%)
Give the value, in units of %, as a plain number.

| Molecule | % Remaining / % |
| --- | --- |
| CC(Cc1ccc2c(c1)OCO2)NC(=O)CN (stereo not drawn) | 99.68 |
| Cc1oc(=O)oc1CN[C@H](C)Cc1ccc2c(c1)OCO2 | 103 |
| Cc1oc(=O)oc1CN(C)[C@H](C)Cc1ccc2c(c1)OCO2 | 97 |
| CCOC(=O)N(C)C(C)Cc1ccc2c(c1)OCO2 (stereo not drawn) | 101.86 |
| CC(Cc1ccc2c(c1)OCO2)N(C)C(=O)CN (stereo not drawn) | 108.06 |
| C[C@H](Cc1ccc2c(c1)OCO2)NC(=O)OC(C)(C)C | 85.17 |
| CC(OC(=O)N(C)C(C)Cc1ccc2c(c1)OCO2)OC(=O)C(C)(C)C (stereo not drawn) | 106.44 |
| CCOC(=O)NC(C)Cc1ccc2c(c1)OCO2 (stereo not drawn) | 100.95 |

Next molecule, % Remaining to be filled in.
Give the measured % Remaining for C[C@H](Cc1ccc2c(c1)OCO2)N(C)C(=O)OC(C)(C)C
74.97
